Each recorded value in this set is attributed to patent US20230372253A1.

Test: Human SAD PK
Assay type: in vivo
Conditions: plasma, oral, cohort 3, 200 mg, mean ± SD, n = 6
QUANTITY NAME: half-life (h)
Write the value in h as a bare number.

Looking up O=C(OCCOCCOCCOC(=O)N(Cc1cccs1)Cc1cccs1)N(Cc1cccs1)Cc1cccs1 [Form 7HP349] , I see its half-life listed as 34.6

---

Experiment: Human SAD PK
Type: in vivo
Settings: plasma, oral, cohort 4, 300 mg, median, n = 6
Method: Preferred lipid-based formulation based on U28 provided adequate exposure in human. The optimal PK exposure to engage integrins and improve adjuvant activity is systemic plasma exposure of AUC0-t between about 50 ng/mL/hr and about 100 ng/mL/hr.
QUANTITY NAME: Tmax (h)
# output: bare number, implied unit h

Reported Tmax for O=C(OCCOCCOCCOC(=O)N(Cc1cccs1)Cc1cccs1)N(Cc1cccs1)Cc1cccs1 [Form 7HP349] was 2
